experiment: Inhibition of Influenza A virus (A/chicken/Hebei/LZF/ 2014(H5N2)) group-2 Neuraminidase N2 preincubated for 10 mins followed by MUNANA substrate addition and measured after 40 to 60 mins by fluorescence method
Measure Name: IC50 (µM)
# number only, unit µM dropped from output

See these solved cases before continuing.
• CCC(CC)O[C@@H]1C=C(C(=O)O)C[C@H](NCc2ccc(-c3ccccc3)s2)[C@H]1NC(C)=O = 1.1
• CC(=O)N[C@H]1[C@H]([C@H](O)[C@H](O)CO)OC(C(=O)O)=C[C@@H]1NC(=N)N = 0.0337
• CCC(CC)O[C@@H]1C=C(C(=O)O)C[C@H](NCc2ccc(-c3nccs3)cc2)[C@H]1NC(C)=O = 7.88

Return IC50 (reported value) for this molecule: `CCC(CC)O[C@@H]1C=C(C(=O)O)C[C@H](NCc2cccc(-c3cccs3)c2)[C@H]1NC(C)=O`
12

* * *

assay: Inhibition of Influenza A virus (A/chicken/Hebei/LZF/ 2014(H5N2)) group-2 Neuraminidase N2 preincubated for 10 mins followed by MUNANA substrate addition and measured after 40 to 60 mins by fluorescence method
Measure Name: IC50 (nM)
Write down the numeric answer in nM and omit the unit.

Answered cases to consult:
* CCC(CC)O[C@@H]1C=C(C(=O)O)C[C@H](N)[C@H]1NC(C)=O [OSELTAMIVIR CARBOXYLATE] | 16.2
* CCC(CC)O[C@@H]1C=C(C(=O)O)C[C@H](NC/C=C/c2cccc(Cl)c2)[C@H]1NC(C)=O | 869
* CCC(CC)O[C@@H]1C=C(C(=O)O)C[C@H](NC/C(C)=C/c2ccccc2)[C@H]1NC(C)=O | 952

Moving on to the next compound.
Give reported IC50 value for `CCC(CC)O[C@@H]1C=C(C(=O)O)C[C@H](NC/C=C/c2ccc(F)cc2)[C@H]1NC(C)=O`
16.8
